The values you see were collected from PubChem BioAssay AID624129.

target: Apelin receptor (Homo sapiens); assay: potency against CXCR6 with APJ panel – cell-based, beta-arrestin, DiscoveRx, uHTS hits, dose response (AID 624129); settings: CXCR6 beta-arrestin (DiscoveRx) antagonist cell assay, APJ, dose range 1
Readout Label: pIC50
Recall that pIC50 is obtained by taking minus log10 of the concentration measured in molar.

Worked set:
Give the measured pIC50 of CC(=O)Nc1ccc(NC(=O)c2nc(S(=O)(=O)Cc3cccc(C)c3)ncc2Cl)cc1 .
5.14

Further, for COc1ccc(OC)c(/C=C/c2ccc3cccc(O)c3n2)c1 ?
5.19

Further, for CN(CCO)c1cc(Sc2nc3ccccc3s2)c2nonc2c1[N+](=O)[O-] ?
4.99

Further, for Cc1ccc(/C=N/NC(=S)N2CCOCC2)cc1 ?
5.31

Further, for CN(O)C(=S)c1ccccc1 ?
5.62

Consider now this further compound.
Give the measured pIC50 of On1ccccc1=S .
4.88
